Source: PubChem BioAssay (NCI)

ASSAY_SUMMARY: NCI Yeast Anticancer Drug Screen. Data for the CLN2oe strain (AID 163);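 further: 0% = growth of vehicle-only control cultures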
CONDITION_SET: S. cerevisiae CLN2oe strain, at 3.7 µM, hits give high values
This is part of a sample that, as a whole, favours compounds with a hit. Of some 79,000 tested, about 15% had one in any assay.
REPORTED_PROPERTY: growth inhibition (%)

compound="CCC(=O)OC1CCn2c1nc1c2C(=O)C(C)=C(N2CC2)C1=O (centres undefined)" measurement=-44
compound="C[C@]12CCC3[C@@H](CC[C@@H]4c5nonc5CC[C@]34C)C1CCC2=O (some centres undefined)" measurement=41
compound=C[C@]12CC[C@H](O)CC1=CC[C@@H]1[C@@H]2CC[C@]2(C)C(=O)CC[C@@H]12 measurement=2
compound=O=C(O)CCCc1cc(I)c(N(CCCl)CCCl)c(I)c1 measurement=-23

====

ASSAY_SUMMARY: NCI Yeast Anticancer Drug Screen. Data for the sgs1 strain (AID 173);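 further: 0% = growth of vehicle-only control cultures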
CONDITION_SET: S. cerevisiae sgs1 mutant, at 1.2 µM, hits give high values
This is part of a sample that, as a whole, favours compounds with a hit. Of some 79,000 tested, about 15% had one in any assay.
REPORTED_PROPERTY: growth inhibition (%)

compound="COC(=O)C1c2cc3c(c(O)c2C(O)CC1(C)O)C(=O)c1c(O)cc2c(c1C3=O)OC1OC2(C)C(O)C(N(C)C)C1O (centres undefined)" reported_property="growth inhibition" measurement=-1
compound=CNC(=O)ON(C(C)=O)C(=O)NC reported_property="growth inhibition" measurement=-26
compound="O=S(=O)(O)/C(=C\\c1ccccc1)c1ccccc1 (tested in a mixture with another compound)" reported_property="growth inhibition" measurement=0
compound=CC1=C(CO)C2=C(C)C3(CC3)[C@@](C)(O)C(=O)C2=C1 reported_property="growth inhibition" measurement=4

====

// reported growth inhibition per item
ASSAY_SUMMARY: NCI Yeast Anticancer Drug Screen. Data for the rad50 strain (AID 155);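 further: 0% = growth of vehicle-only cultures of the same strain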
CONDITION_SET: S. cerevisiae rad50 strain growth inhibition; at 50.0 µM (retest, dose inferred, filed as 5.0); hits give high values
Experimental: Growth inhibition of yeast strains with defined genetic alterations is measured as a screen for potential anti-cancer activity. Selected strains with alterations in DNA damage repair or cell cycle control were exposed to compounds and growth inhibition was measured relative to vehicle treated controls. The strain used in this assay is rad50
Compounds without any hit were thinned out: in the full panel of roughly 79,000, 15% have a hit. Activity calls are given as the source filed them. Cut-off read from the data, not from the text of the source: active = growth inhibition above about 70%; inactive = the rest.
REPORTED_PROPERTY: growth inhibition

compound=O=c1oc2ccccc2c(O)c1C(c1ccco1)c1c(O)c2ccccc2oc1=O measurement="22% (inactive)"
compound="CC1=C(O)C(=O)C=C2C1=CC=C1[C@@]2(C)CCC2(C)[C@@H]3C[C@@H](C)C(=O)C[C@]3(C)CC[C@]12C (stereo partly specified)" measurement="97% (active)"
compound=Oc1cc[c]([Hg][Cl])cc1 measurement="99% (active)"
compound="CC(=O)C1CCC2C3CCC4=CC(=[N+]5CCCCC5)CCC4(C)C3CCC12C (stereo unspecified)" measurement="74% (active)"
compound="O=P(Nc1cccc(Cl)c1)(Oc1ccccc1)N(CCCl)CCCl (stereo unspecified)" measurement="40% (inactive)"
compound="CCCCCCC1CC2(Cl)C(Cl)=C(Cl)C1(Cl)C2(Cl)Cl (stereo unspecified)" measurement="99% (active)"

====

ASSAY_SUMMARY: NCI Yeast Anticancer Drug Screen. Data for the rad50EPP+ strain (AID 151);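 further: 0% = growth of vehicle-treated control cultures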
CONDITION_SET: S. cerevisiae rad50 mutant strain, at 100.0 µM, hits give high values
Compounds without any hit were thinned out: in the full panel of roughly 79,000, 15% have a hit.
REPORTED_PROPERTY: growth inhibition (%)

compound=O=C(O)CCCc1cc(I)c(N(CCCl)CCCl)c(I)c1 reported_property="growth inhibition" unit_descriptor=% measurement=-33
compound="CCC1(OC(=O)CN)C(=O)OCc2c1cc1n(c2=O)Cc2cc3ccccc3nc2-1 (centres undefined)" reported_property="growth inhibition" unit_descriptor=% measurement=93
compound="CCOP(=O)(CC(C)P(=O)(OCC)OCC)OCC.C[CH2][Sn]([Cl])([Cl])[CH2]C (centres undefined)" reported_property="growth inhibition" unit_descriptor=% measurement=4
compound="CCOC(=O)C1([Se]c2ccccc2)CCCC1=O (centres undefined)" reported_property="growth inhibition" unit_descriptor=% measurement=96
compound=O=C(Nc1cc(Cl)ccc1Cl)C(Cl)(Cl)Cl reported_property="growth inhibition" unit_descriptor=% measurement=25
compound=COc1cc2ccccc2c2cc([N+](=O)[O-])oc12 reported_property="growth inhibition" unit_descriptor=% measurement=88
compound="CCC1(O)C(=O)OCc2c1cc1n(c2=O)Cc2c-1nc1ccccc1c2OC (centres undefined)" reported_property="growth inhibition" unit_descriptor=% measurement=27
compound=CCS(=O)(=O)[O][Sn]([CH2]C)([CH2]C)[O]S(=O)(=O)CC reported_property="growth inhibition" unit_descriptor=% measurement=-35
compound="C[N+]1(CCCl)CC[N+](C)(CCCl)CC1 (centres undefined)" reported_property="growth inhibition" unit_descriptor=% measurement=56
compound=Cn1cc(NC(=O)c2cc(NC(=O)CN=C(N)N)cn2C)cc1C(=O)NCCC(=N)N reported_property="growth inhibition" unit_descriptor=% measurement=96
compound=Br[Se]c1ccccn1 reported_property="growth inhibition" unit_descriptor=% measurement=98
compound=CC1=C2C(=C[C@@](C)(CO)[C@@H]2O)C(=O)[C@](C)(O)C12CC2 reported_property="growth inhibition" unit_descriptor=% measurement=1
compound="CC1CCC2(NC1)OC1CC3C4CCC5CC(OC6OC(CO)C(OC7OC(CO)C(O)C(OC8OCC(O)C(O)C8O)C7OC7OC(CO)C(O)C(O)C7O)C(O)C6O)CCC5(C)C4CCC3(C)C1C2C (centres undefined)" reported_property="growth inhibition" unit_descriptor=% measurement=27
compound=CCN(CC)CCBr reported_property="growth inhibition" unit_descriptor=% measurement=92
compound=O=C1NC(=S)NC(=O)C1=Cc1ccc([N+](=O)[O-])o1 reported_property="growth inhibition" unit_descriptor=% measurement=92
compound=COc1ccc(/C=C(/C)[N+](=O)[O-])cc1 reported_property="growth inhibition" unit_descriptor=% measurement=99
compound=Nc1ccc(Cl)cc1C(=O)c1ccccc1 reported_property="growth inhibition" unit_descriptor=% measurement=90
compound="CCNC(=O)OCC1C2=C(C(=O)C(C)=C(N)C2=O)N2CC3C(N3C)C12OC (centres undefined)" reported_property="growth inhibition" unit_descriptor=% measurement=41
compound="CC1CC(C)CC(C)C(O)/C(C#N)=C/C=C/CC(C2CCCC2C(=O)O)OC(=O)CC(O)C(C)C1 (centres undefined)" reported_property="growth inhibition" unit_descriptor=% measurement=97
compound="COC(COC(=O)N1CCN(C=O)CC1)C1=C(N2CC2)C(=O)C(C)=C(N2CC2)C1=O (centres undefined)" reported_property="growth inhibition" unit_descriptor=% measurement=-5
compound=CC1=C(N2CC2)C(=O)c2ccccc2C1=O reported_property="growth inhibition" unit_descriptor=% measurement=96
compound=CCNCC(=O)O[C@]1(CC)C(=O)OCc2c1cc1n(c2=O)Cc2cc3ccccc3nc2-1 reported_property="growth inhibition" unit_descriptor=% measurement=-11
compound=c1c(N2CCOCC2)ssc1=[N+]1CCOCC1 reported_property="growth inhibition" unit_descriptor=% measurement=5
compound=C=C[C@H]1CN2CC[C@H]1C[C@@H]2[C@@H](O)c1ccnc2ccccc12 reported_property="growth inhibition" unit_descriptor=% measurement=-3
compound="COC1CC(CC2CCC(C)C(C(C)C(=O)O)O2)OC2(OC(C)(C3CCC(C)(C4OC(C5OC(O)(CO)C(C)CC5C)CC4C)O3)CC2C)C1C (centres undefined)" reported_property="growth inhibition" unit_descriptor=% measurement=90
compound="Cc1ccc2c(c1)C1(C)c3cc(C)ccc3SP1S2 (centres undefined)" reported_property="growth inhibition" unit_descriptor=% measurement=50
compound="CCCCCCCCCCCCCCCCP(=O)(O)OP(=O)(O)OCC1OC(n2ccc(N)nc2=O)C(O)C1O (centres undefined)" reported_property="growth inhibition" unit_descriptor=% measurement=18
compound="C[N+](C)(C)CC1CCCC(C[N+](C)(C)C)C1=O (centres undefined)" reported_property="growth inhibition" unit_descriptor=% measurement=99
compound=COc1ccc(OC)c(/C=C/[N+](=O)[O-])c1 reported_property="growth inhibition" unit_descriptor=% measurement=99
compound=Oc1cccc2nc3ccccc3nc12 reported_property="growth inhibition" unit_descriptor=% measurement=96
compound=CNC(=O)ON(C(C)=O)C(=O)NC reported_property="growth inhibition" unit_descriptor=% measurement=42
compound=O=S(=O)(O)c1ccc(Cl)cc1.[Cd] reported_property="growth inhibition" unit_descriptor=% measurement=75
compound=CCN(CCCl)c1cc(CN(C)C)cc(NC(=O)c2ccc(C(=O)Nc3cc(CN(C)C)cc(N(CC)CCCl)c3)cc2)c1 reported_property="growth inhibition" unit_descriptor=% measurement=35
compound=CC[C@](O)(C(=O)O)c1cc2n(c(=O)c1CO)Cc1cc3ccccc3nc1-2 reported_property="growth inhibition" unit_descriptor=% measurement=98
